- System: CAKI-1
- TEST NAME: NCI tumour cell line growth inhibition, 48 h
Calls of active or inactive are those of the source. Rule as the data show it: active = GI50 up to about 1.1 µM and inactive = higher.
Provide the reported GI50 of each item.

So what's the measured GI50 for this one? `Cc1ccsc1C(=S)Nc1ccc(Cl)c(/C=N/OC(C)C)c1` 46.3 µM (inactive)

Form field: reported GI50 of `O=C(Cc1nc2ccccc2[nH]c1=O)c1c[nH]c2ccccc12` 20.2 µM (inactive)

Name the recorded GI50 for `Oc1c(Br)cc(Br)cc1CN(Cc1cc(Br)cc(Br)c1O)C1CCCCC1` . 34.9 µM (inactive)

What measured GI50 goes with CC(=O)/C=C1/c2ccccc2N(C(C)=O)C1O (stereo unspecified) ? > 100 µM (inactive)

// returns reported GI50 for input `CN(C)C(=S)SCC(=O)Nc1ccccc1` > 100 µM (inactive)

Can you share its GI50? I mean this compound: `Cc1c2cccc-2ccc2c1[nH]c1ccc(Br)cc12` 11.8 µM (inactive)

If you can, please state the reported GI50 value of `CSC1=C(C)C(/C=N/Nc2ccc([N+](=O)[O-])cc2)=C(C)N(c2ccccc2)S1(=O)=O` . > 100 µM (inactive)

Param item = `C=C(C(=O)OCC)C(=O)OCC` ; retrieve measured GI50. > 100 µM (inactive)

Which measured GI50 value corresponds to `O=C(Nc1ccc2ncccc2c1)Nc1ccc2ncccc2c1` ? > 100 µM (inactive)

Item under review: `COc1cc(C2C(C(=O)Nc3ccc([N+](=O)[O-])cc3)=C(C)NC(C)=C2C(=O)Nc2ccc([N+](=O)[O-])cc2)ccc1O` . Reported GI50? 31 µM (inactive)

Record request: GI50 value, item `COc1ccc(-c2c(CN3CCOCC3)sc3nc4ccccc4n23)cc1` 28.5 µM (inactive)

Could you tell me which GI50 is on file for COc1ccc(C(C#N)NNC(=O)Cc2ccccc2)cc1OC (stereo unspecified) ? > 100 µM (inactive)

Could you share which GI50 value was measured for CCOC(=O)CC1(Cc2ccc(OCc3ccccc3)cc2)C(=O)OC(c2ccccc2)N1C(=O)c1ccccc1 (stereo unspecified) ? > 100 µM (inactive)

Give the measured GI50 of CC(C)=CCC[C@@H](C)C1=C(O)C(O)C(C)=C2N=C(c3ccccc3)C(=O)OC21 (stereo partly specified) . 2.39 µM (inactive)

Please look up its GI50: `O=C(O)c1ccccc1/C=N/N=C1c2ccccc2-c2ccccc21` 35.3 µM (inactive)

If you can, please state the reported GI50 value of `CC(=O)c1sc2c(c1OC(=O)c1cccs1)c(=O)n(-c1ccccc1)c(=S)n2-c1ccccc1` . 30.8 µM (inactive)

# get_value(readout='GI50', item= `O=C(O)c1ccc(P(=O)(O)c2ccc(C(=O)O)cc2Br)c(Br)c1` ) > 100 µM (inactive)

Which GI50 value belongs to c1ccc2c(c1)Sc1ccccc1N2C1CN2CCC1CC2 (stereo unspecified) ? 17.2 µM (inactive)

Consider the compound O=C(N/N=C(/c1nc2ccc(Cl)cc2[nH]c1=O)C(O)c1ccc(Cl)cc1Cl)c1ccncc1 (stereo unspecified) and give its measured GI50. > 100 µM (inactive)

Tell me the measured GI50 of COc1ccc(-c2nc(N)c3ncn(C4OC(CO)C(O)C4O)c3n2)cc1 (stereo unspecified) , please. > 100 µM (inactive)

Quick one: GI50 for `COc1ccc(OC)c2sc(N3C(=O)/C(=C/c4ccccc4S)N=C3c3ccccc3)nc12` ? 95.9 µM (inactive)
